Experiment: Example 1: phase I crossover food-effect study, single-dose pharmacokinetics of nelfinavir 250 mg tablets (total kilocalories and fat)
Type: in vivo, human (normal healthy volunteers)
Details: human, plasma, oral, 1250 mg, nelfinavir; moderate calorie meal; read-out: mean tmax longer relative to fasting subjects
Metric Name: Tmax

# input compound: Cc1c(O)cccc1C(=O)N[C@@H](CSc1ccccc1)[C@H](O)CN1C[C@H]2CCCC[C@H]2C[C@H]1C(=O)NC(C)(C)C (relative stereo) ; wanted: its Tmax ~1.5 h

---

Assay: Example 2: phase 1 crossover 3×3 study, fixed kilocalorie meal at 20% and 50% fat, single-dose pharmacokinetics of nelfinavir 250 mg tablets
Format: in vivo, human (normal, healthy volunteers)
Details: human, plasma, oral, 1250 mg, nelfinavir; meal of 50% fat content (500 kcal); read-out: mean tmax longer relative to fasting subjects
Metric Name: Tmax

Query (molecule): Cc1c(O)cccc1C(=O)N[C@@H](CSc1ccccc1)[C@H](O)CN1C[C@H]2CCCC[C@H]2C[C@H]1C(=O)NC(C)(C)C (relative stereo) ; field requested: Tmax ~2 h

---

Assay: Example 2: phase 1 crossover 3×3 study, fixed kilocalorie meal at 20% and 50% fat, single-dose pharmacokinetics of nelfinavir 250 mg tablets
Type: in vivo, human (normal, healthy volunteers)
Details: human, plasma, oral, 1250 mg, Kcal/Fat % 500/20%; read-out: Nelfinavir Cmax
Metric Name: Cmax (ng/mL)
Dear colleague, please return just the value in ng/mL, with no unit written.

GET /values?readout=Cmax&item= Cc1c(O)cccc1C(=O)N[C@@H](CSc1ccccc1)[C@H](O)CN1C[C@H]2CCCC[C@H]2C[C@H]1C(=O)NC(C)(C)C (relative stereo) 4000
